Quick reference: inhibition at 1 µM of the listed items.
system.name: Human TRPV3 (Homo sapiens, UniProt Q8NET8)
Construct: expressed in transfected cells; host or cells: CHO cells (selected with G-418)
Sequence (Q8NET8 whole entry): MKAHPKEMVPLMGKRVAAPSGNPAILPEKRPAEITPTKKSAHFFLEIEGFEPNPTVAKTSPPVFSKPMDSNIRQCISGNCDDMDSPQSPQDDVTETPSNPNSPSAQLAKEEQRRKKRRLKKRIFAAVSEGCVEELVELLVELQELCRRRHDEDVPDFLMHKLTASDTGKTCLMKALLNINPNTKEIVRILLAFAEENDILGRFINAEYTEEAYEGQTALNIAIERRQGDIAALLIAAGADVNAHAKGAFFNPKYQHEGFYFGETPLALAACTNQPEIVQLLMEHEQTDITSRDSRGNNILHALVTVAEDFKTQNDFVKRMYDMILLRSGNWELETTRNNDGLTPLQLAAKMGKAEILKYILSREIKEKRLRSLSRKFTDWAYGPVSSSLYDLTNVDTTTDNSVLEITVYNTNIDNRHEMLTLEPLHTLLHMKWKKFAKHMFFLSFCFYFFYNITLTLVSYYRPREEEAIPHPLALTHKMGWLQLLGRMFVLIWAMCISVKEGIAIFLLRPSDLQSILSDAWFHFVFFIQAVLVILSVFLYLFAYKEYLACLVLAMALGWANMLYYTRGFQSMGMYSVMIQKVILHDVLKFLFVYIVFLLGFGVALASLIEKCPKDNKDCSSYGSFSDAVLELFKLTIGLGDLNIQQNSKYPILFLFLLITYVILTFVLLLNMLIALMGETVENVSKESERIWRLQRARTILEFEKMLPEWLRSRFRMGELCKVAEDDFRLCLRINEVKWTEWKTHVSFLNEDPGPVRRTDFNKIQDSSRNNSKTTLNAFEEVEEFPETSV
experiment: 45Calcium uptake assay: inhibition of 2-APB induced cellular uptake of radioactive calcium
Type: cell-based
applied.conditions: 1 μM test compound; human TRPV3 expressing CHO cells; 2-APB 500 μM; read-out: Percentage Inhibition (1 μM)
experimental.readout: inhibition at 1 µM (%)

1) COc1cccc(/C=C/c2nc3ccccc3n2-c2ncc(C#N)s2)c1OC1CCCC1 [Example 48]	43.5
2) COc1cccc(/C=C/c2nc3ccccc3n2-c2ccc(C#N)cn2)c1OC(C)C [Example 9]	79.7
3) COc1cccc(/C=C/c2nc3ccccc3n2-c2ccc(C#N)cn2)c1OC1CCCC1 [Example 13]	89.1
4) COc1cccc(/C=C/c2nc3ccc(F)cc3n2-c2ccc(C#N)cn2)c1OC1CCCC1 [Example 53]	96
5) COc1cccc(/C=C/c2nc3ccccc3n2-c2ccc(C#N)cn2)c1OCC1CC1 [Example 12]	81.4
6) COc1cccc(/C=C/c2nc3ccc(OC(F)F)cc3n2-c2ccc(C#N)cn2)c1OC1CCCC1 [Example 58]	96.3
7) COc1cccc(/C=C/c2nc3cc(F)c(F)cc3n2-c2ccc(C#N)nn2)c1OC1CCCC1 [Example 76]	96.3
8) COc1cccc(/C=C/c2nc3cc(F)c(F)cc3n2-c2ccc(C#N)cn2)c1OCC(C)C [Example 66]	98.6
9) CCC(CC)Oc1c(/C=C/c2nc3ccccc3n2-c2ncc(Br)cn2)cccc1OC [Example 22]	70.6
10) CCC(CC)Oc1c(/C=C/c2nc3ccccc3n2-c2ccc(C#N)cn2)cccc1OC [Example 10]	96.6
11) COc1cccc(/C=C/c2nc3ccccc3n2-c2ccc(C#N)cc2F)c1OCC1CC1 [Example 39]	76.8
12) COc1cccc(/C=C/c2nc3cc(F)c(Cl)cc3n2-c2ccc(C#N)cn2)c1OC1CCCC1 [Example 70]	96.2
13) COc1cccc(/C=C/c2nc3cccnc3n2-c2ccc(C#N)cn2)c1OCC1CCC1 [Example 90]	93.3
14) COc1cccc(/C=C/c2nc3ccccc3n2-c2ccc(C(F)(F)F)cn2)c1OCC1CC1 [Example 26]	70.6

* * *

system.name: Human TRPV3 (Homo sapiens)
Construct: expressed in transfected cells; host or cells: CHO cells (selected with G-418)
experiment: 45Calcium uptake assay: inhibition of 2-APB induced cellular uptake of radioactive calcium
Assay type: cell-based
applied.conditions: 10 μM test compound; human TRPV3 expressing CHO cells; 2-APB 500 μM; read-out: Percentage Inhibition (10 μM)
experimental.readout: inhibition at 10 µM

1. COc1cccc(/C=C/c2nc3ccccc3n2-c2ccc(C#N)cc2F)c1OCC1CC1	94.2%
2. COc1cccc(/C=C/c2nc3ccccc3n2-c2ccc(C#N)cc2)c1OCC1CC1	95.3%
3. N#Cc1ccc(-n2c(/C=C/c3cccc(OC(F)F)c3OC3CCCC3)nc3cc(F)c(F)cc32)nc1	99.3%
4. COc1cccc(/C=C/c2nc3cc(F)cc(F)c3n2-c2ccc(C#N)cn2)c1OC1CCCC1	96.8%
5. COc1cccc(/C=C/c2nc3ccccc3n2-c2ncccn2)c1OC1CCCC1	81.9%
6. COc1cccc(/C=C/c2nc3cc(Cl)c(Cl)cc3n2-c2ccc(C#N)cn2)c1OC1CCCC1	95.5%
7. COc1cccc(/C=C/c2nc3ccccc3n2Cc2ccc(C#N)cc2)c1OCC1CC1	87.3%
8. COc1cccc(/C=C/c2nc3ccc(F)cc3n2-c2ccc(C#N)cn2)c1OC1CCCC1	98.7%
9. CCCCCOc1c(/C=C/c2nc3cc(Cl)cnc3n2-c2ccc(C#N)cn2)cccc1OC(F)F	85.2%
10. COc1cccc(/C=C/c2nc3ccccc3n2-c2ccc(C(F)(F)F)cn2)c1OCC1CC1	91.6%
11. CCCCCOc1c(/C=C/c2nc3cc(F)c(F)cc3n2-c2ccc(C#N)cn2)cccc1OC(F)F	98.9%
12. COc1cccc(/C=C/c2nc3ccccc3n2-c2ccc(F)c(C#N)c2)c1OCC1CC1	59.2%
13. COc1cccc(/C=C/c2nc3cc(F)c(F)cc3n2-c2ccc(C(N)=O)nn2)c1OC1CCCC1	90.7%
14. COc1cccc(/C=C/c2nc3cccnc3n2-c2ccc(C#N)cn2)c1OC1CCCC1	99.7%
15. COc1cccc(/C=C/c2nc3ccccc3n2-c2ncc(C#N)s2)c1OC1CCCC1	75.8%
16. COc1cccc(/C=C/c2nc3ccccc3n2-c2nccs2)c1OC1CCCC1	79.7%
17. N#Cc1ccc(-n2c(/C=C/c3cccc(OC(F)F)c3OCC3CCC3)nc3cc(Cl)cnc32)nc1	98.1%
18. COC(=O)c1ccc(-n2c(/C=C/c3cccc(OC)c3OC3CCCC3)nc3ccccc32)nc1	27.5%
19. COc1cccc(/C=C/c2nc3ccccc3n2Cc2ccc(C#N)cc2)c1OCc1ccccc1F	87.1%
20. COc1cccc(/C=C/c2nc3ccccc3n2-c2ccccn2)c1OC1CCCC1	85%
21. CCCCCOc1c(/C=C/c2nc3cc(Cl)cnc3n2-c2ccc(C#N)cn2)cccc1OC	97.6%
22. COc1cccc(/C=C/c2nc3ccccc3n2-c2ccc(C#N)cc2)c1OCc1ccccc1	86.8%
23. COc1cccc(/C=C/c2nc3ccccc3n2-c2ncc(Cl)cc2Cl)c1OCc1ccccc1F	89%

Where do the numbers come from? From patent US8344010B2.
